# Target system: Beta-2 adrenergic receptor (Homo sapiens)
# Method notes: qHTS assay of beta-arrestin-biased ligands of beta2-adrenergic receptor: Hit Validation with GloSensor
# Recorded conditions: W9-Glo22F cells, GloSensor cAMP luminescence, beta2AR agonism
The whole screen tested about 1,200 compounds, of which about 85 (7%) were called active. Calls follow the shape of the full dose curve. The sample as a whole holds a higher share of actives than the screen did.
Select the matching outcome among Yes for active, No for inactive

Examples with answers:
Prompt line: Please state the recorded outcome for this compound: CCOC(=O)c1cnc(-n2nc(C)cc2C)nc1NC
Response line: No

Prompt line: Try this compound next: O=C(N/N=C/c1ccccc1OC(=O)c1ccc2c(c1)OCO2)c1ccccc1
Response line: No

Prompt line: Try this compound next: COc1ccc(NC(=O)C(=O)NCC(c2ccco2)N2CCc3ccccc32)cc1 (stereo not given)
Response line: No

New cases:
Prompt line: Please state the recorded outcome for this compound: CN(C(=O)CSc1ccncc1)C1CCCN(Cc2ccccc2F)C1 (stereo not given)
Response line: No

Prompt line: Try this compound next: COc1ccc(C(CNC(=O)c2ccc(C)c(S(=O)(=O)Nc3ccccc3OC)c2)N2CCCC2)cc1 (stereo not given)
Response line: No

Prompt line: Try this compound next: COc1ccc(C2CC(O)(c3ccccc3)Oc3cc(OC)c(OC)c(OC)c32)cc1 (stereo not given)
Response line: No

Prompt line: Try this compound next: O=C(NCCOc1cccnc1)C1CCC(=O)N(Cc2ccccc2F)C1 (stereo not given)
Response line: Yes

Prompt line: Try this compound next: O=C(COC(=O)c1n[nH]c(=O)c2ccccc12)NCc1ccccc1
Response line: No

Prompt line: Try this compound next: O=C(Nc1nc(-c2ccccn2)cs1)Nc1ccc(F)cc1F
Response line: No

Prompt line: Try this compound next: COc1ccc(NC(=O)c2cc3c(-c4ccc(OC)c(OC)c4)nn(C)c3s2)cc1OC
Response line: No

---

# Target system: Beta-2 adrenergic receptor (Homo sapiens)
# Method notes: qHTS assay of beta-arrestin-biased ligands of beta2-adrenergic receptor: Hit Validation with GloSensor
# Recorded conditions: W9-Glo22F cells, GloSensor cAMP luminescence, beta2AR agonism
Out of some 1,200 compounds screened, about 85 (7%) were called active. Calls come from the whole dose curve. The sample holds actives, similar compounds and a random draw of the others, so the mix is not that of the screen.
Select the matching outcome among active, inactive

Examples with answers:
Prompt line: Please state the recorded outcome for this molecule: CCNC(=S)N/N=C/c1ccco1
Response line: inactive

Prompt line: Try this molecule next: S=C(Nc1ccccc1)Nc1nc2ccccc2n1CCOc1ccc(Br)cc1
Response line: inactive

Prompt line: Try this molecule next: O=c1[nH]c(CSc2cccc[n+]2[O-])nc2ccccc12
Response line: inactive

New cases:
Prompt line: Please state the recorded outcome for this molecule: O=c1[nH]c(CSc2ccccn2)nc2c1cnn2-c1ccccc1
Response line: active

Prompt line: Try this molecule next: COc1cccc(C(=O)C2CCCN(Cc3cccc(-n4nc(C)cc4C)c3)C2)c1 (stereo unspecified)
Response line: inactive

Prompt line: Try this molecule next: COc1ccc(C(=O)C2CCCN(Cc3cnc(N4CCCC4)s3)C2)cc1OC (stereo unspecified)
Response line: inactive

Prompt line: Try this molecule next: S=c1[nH]nc(-c2ccco2)n1/N=C/C(Cl)=C/c1ccccc1
Response line: inactive

Prompt line: Try this molecule next: CCc1n[nH]c(=S)n1/N=C/c1ccc(N(CC)CC)cc1
Response line: inactive

Prompt line: Try this molecule next: CN(c1ccccc1)S(=O)(=O)c1ccc(C(=O)Nc2nccs2)cc1
Response line: inactive

Prompt line: Try this molecule next: O=C(Nc1ccc(Nc2ccccc2)cc1)c1cc([N+](=O)[O-])ccc1Cl
Response line: inactive

Prompt line: Try this molecule next: CC1=C(C)/C(=N\OS(=O)(=O)c2ccc(C)cc2)C=CC1=O
Response line: inactive

---

# Target system: Beta-2 adrenergic receptor (Homo sapiens) (UniProt P07550)
# Sequence (P07550 whole entry, looked up): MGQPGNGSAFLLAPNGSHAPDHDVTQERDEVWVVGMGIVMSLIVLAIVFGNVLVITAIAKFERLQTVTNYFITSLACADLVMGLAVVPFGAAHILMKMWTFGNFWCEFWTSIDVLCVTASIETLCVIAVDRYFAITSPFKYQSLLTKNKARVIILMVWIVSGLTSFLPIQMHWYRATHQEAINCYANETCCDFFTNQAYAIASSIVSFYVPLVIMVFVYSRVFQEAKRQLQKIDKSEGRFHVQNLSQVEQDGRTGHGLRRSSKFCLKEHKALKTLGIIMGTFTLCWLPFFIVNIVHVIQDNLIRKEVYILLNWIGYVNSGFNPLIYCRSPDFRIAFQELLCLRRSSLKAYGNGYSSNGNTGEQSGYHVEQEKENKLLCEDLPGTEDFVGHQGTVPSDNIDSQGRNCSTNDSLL
# Method notes: qHTS assay of beta-arrestin-biased ligands of beta2-adrenergic receptor: Hit Validation with GloSensor; also: potency is read from the fitted curve at half-maximal effect
# Recorded conditions: W9-Glo22F cells, GloSensor cAMP luminescence, beta2AR agonism
Hit rate of the full screen: of about 1,200 compounds, about 85 (7%) were called active. For the sample, actives were picked, then their nearest neighbours and some compounds at random.
Measured property: Potency

Prompt line: // lookup Potency | system=Beta-2 adrenergic receptor (Homo sapiens) (UniProt P07550) | key= Cc1ccc2c(c1)[C@H]1[C@H](CO2)[C@H](c2ccccc2)[C@]2(C)C(=O)Nc3ccccc3C(=O)N12
Response line: inactive

Prompt line: Try this molecule next: Cc1ccc(S(=O)(=O)N(Cc2ccc(Cl)cc2)c2ccccc2C(=O)NCc2ccco2)cc1
Response line: inactive

Prompt line: Try this molecule next: C=CCn1c(O)c(N=NC(=S)Nc2ccccc2F)c2cc(S(=O)(=O)N3CCOCC3)ccc21
Response line: inactive

Prompt line: Try this molecule next: Cc1cc(/C=N/NC(N)=S)c(C)n1-c1ccc(Cl)cc1
Response line: inactive

Prompt line: Try this molecule next: NC(=S)N=Nc1c(O)n(CCCl)c2ccccc12
Response line: 25.9 µM (active)

New cases:
Prompt line: // lookup Potency | system=Beta-2 adrenergic receptor (Homo sapiens) (UniProt P07550) | key= Cc1cccc(N=C2NC(=O)/C(=C/c3cccs3)S2)c1
Response line: 1.03 µM (active)

Prompt line: Try this molecule next: COCCCN=C1NN=C(c2cc(C)n(-c3ccccc3)c2C)CS1
Response line: inactive

Prompt line: Try this molecule next: O=C(CC(c1ccco1)S(=O)(=O)c1ccccc1)c1ccccc1 (stereo not drawn)
Response line: inactive

Prompt line: Try this molecule next: Cc1ccc(N=C2NC(=O)/C(=C/C=C/c3ccco3)S2)cc1
Response line: inactive

Prompt line: Try this molecule next: NC(=S)N/N=C/c1ccccc1OC(=O)c1cc2ccccc2oc1=O
Response line: inactive

Prompt line: Try this molecule next: COc1ccc(C(=O)N/N=C/C(Br)=C/c2ccccc2)cc1
Response line: inactive

Prompt line: Try this molecule next: COc1ccc2c(c1)c(=O)c(C(=O)c1ccccc1)cn2Cc1ccccc1
Response line: inactive

---

# Target system: Beta-2 adrenergic receptor (Homo sapiens) (UniProt P07550)
# Method notes: qHTS assay of beta-arrestin-biased ligands of beta2-adrenergic receptor: Hit Validation with GloSensor; also: potency is read from the fitted curve at half-maximal effect
# Recorded conditions: W9-Glo22F cells, GloSensor cAMP luminescence, beta2AR agonism
Among all 1,200 compounds or so, about 85 (7%) were called active. Many of the other results were omitted from the sample, so actives are more common in it than they were.
Measured property: Potency

Example compounds with recorded Potency:
Prompt line: Recorded Potency for CC(=O)Nc1ccc(Nc2cc(C)nc3c(-c4ccccc4)c(C)nn23)cc1 , please?
Response line: inactive

Prompt line: Try this compound next: Oc1ccc(NCc2ccc(OCc3ccccc3)cc2)cc1
Response line: inactive

Prompt line: Try this compound next: Cc1ccc(NC(=S)NC(NC(=O)c2ccccc2)C(Cl)(Cl)Cl)c(C)c1 (configuration not stated)
Response line: inactive

Prompt line: Try this compound next: COc1ccc(CN=C2NN=C(c3ccccc3)CS2)cc1
Response line: inactive

Prompt line: Try this compound next: CNc1cc(C)nc(-n2nc(C)cc2C)n1
Response line: inactive

New cases:
Prompt line: Recorded Potency for CN(C)C(=S)Nc1nc2ccccc2s1 , please?
Response line: inactive

Prompt line: Try this compound next: CC(C)OC(=O)c1cn(-c2ccccc2)nc1-c1ccco1
Response line: 23.1 µM (active)

Prompt line: Try this compound next: Cc1cc(C)nc(-n2nc(C)cc2NC(=O)CN2CCC(C)CC2)n1
Response line: 29.1 µM (active)

Prompt line: Try this compound next: CC(C)[C@H](NC(=O)c1ccccc1Cl)C(=O)Nc1nc(-c2ccccn2)cs1
Response line: inactive

Prompt line: Try this compound next: C=CCNC(=S)N/N=C(\C)c1cccc(NC(C)=O)c1
Response line: 23.1 µM (active)

Prompt line: Try this compound next: CC1(C)CC(C)(c2ccc(O)cc2O)N(c2cccc(Cl)c2)C(=S)N1 (configuration not stated)
Response line: inactive

Prompt line: Try this compound next: CCC(C(=O)Nc1cc(C)nn1-c1nc(C)cc(C)n1)c1ccccc1 (configuration not stated)
Response line: 18.4 µM (active)

Prompt line: Try this compound next: NC(=S)N/N=C/c1ncc(C(F)(F)F)cc1Cl
Response line: inactive

Prompt line: Try this compound next: Cc1cc(C)n(-c2nc(NC(C)C)nc(NC(C)C)n2)n1
Response line: inactive

Prompt line: Try this compound next: Oc1ccc(NCc2cccc(OCc3ccccc3)c2)cc1
Response line: inactive

Prompt line: Try this compound next: COc1cccc(/C=N/Nc2ncc(C(F)(F)F)cc2Cl)c1O
Response line: 25.9 µM (active)

Prompt line: Try this compound next: Cn1c(/C=C/c2ccc([N+](=O)[O-])o2)nc2ccccc2c1=O
Response line: inactive
